We begin with a simple list: items and their reported kcat, Enzyme SEQ ID NO: 1: rPro-hCD.
experimental system: rPro-hCD ADAMTS-7 (SEQ ID NO: 1) (Homo sapiens, UniProt Q9UKP4, A119V/A123T/A127T/A171V/A193G/A200T/A28V/A36P/A42G/A66V/A78S/A97T/D77A/DEL186-188/DEL228-233/E133D/E190K/E213K/E83Q/G114S/G115N/G117S/G196D/G27H/H100Y/H124S/H234Q/K153R/L143F/L192S/L20I/P189H/P201S/P29L/P33S/P79S/Q99P/R118N/R122Q/R174Q/R195Q/R215Q/R218H/R35L/R75A/R76Q/R87Q/R92L/S170E/S199R/S202G/S214H/T110I/T125V/V182M/V208G/V74A/W225K/Y209S)
Construct: rat ADAMTS-7 signal peptide + prodomain (rat 1-217), fusion partner (N); 2xStrep tag (C); 6xHis tag (C); made in house; host or cells: Expi293 cells
Sequence (Q9UKP4 with tags, fused parts or gaps with the stated changes): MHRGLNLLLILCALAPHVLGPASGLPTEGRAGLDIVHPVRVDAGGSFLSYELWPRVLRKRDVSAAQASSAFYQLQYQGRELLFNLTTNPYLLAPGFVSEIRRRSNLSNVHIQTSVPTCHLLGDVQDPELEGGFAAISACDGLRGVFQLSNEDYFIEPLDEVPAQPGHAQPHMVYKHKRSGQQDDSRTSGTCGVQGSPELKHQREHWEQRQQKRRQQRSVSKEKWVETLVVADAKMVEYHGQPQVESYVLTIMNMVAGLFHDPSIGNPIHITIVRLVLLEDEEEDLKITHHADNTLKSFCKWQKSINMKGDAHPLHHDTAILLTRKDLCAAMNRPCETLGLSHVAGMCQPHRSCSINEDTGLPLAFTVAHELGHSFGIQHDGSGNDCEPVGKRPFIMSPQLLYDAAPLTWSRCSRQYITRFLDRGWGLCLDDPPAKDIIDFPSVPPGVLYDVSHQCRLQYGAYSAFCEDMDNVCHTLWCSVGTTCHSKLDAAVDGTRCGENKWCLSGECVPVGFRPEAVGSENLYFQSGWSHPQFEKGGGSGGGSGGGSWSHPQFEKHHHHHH
protocol notes: FRET peptide substrate cleavage by rPro-hCD (SEQ ID NO: 1)
Assay type: biochemical
recorded conditions: approx. 100 nM enzyme, 10 μM peptide substrate
donor fluorophore = not defined here; K(quencher) = not defined here
property name: kcat, Enzyme SEQ ID NO: 1: rPro-hCD (s⁻¹)

substance	value unit	numeric readout
(HiLyteFluor-488)-SSMVLELRGLRT-K(QXL520)-NH2 ({HiLyteFluor‑488}-SSMVLELRGLRTK(QXL520)-NH2) [TSP1-5, FRET peptide substrate, TSP1 amino acids 278-289]	s⁻¹	3.33e-05
(HiLyteFluor-488)-DELSSMVLELRGLRT-K(QXL520)-NH2 ({HiLyteFluor‑488}-DELSSMVLELRGLRTK(QXL520)-NH2) [TSP1-1, FRET peptide substrate for ADAMTS-7/12, TSP1 amino acids 275-289]	s⁻¹	0.00035
(HiLyteFluor-488)-SSMVLELRGLRTIVT-K(QXL520)-NH2 ({HiLyteFluor‑488}-SSMVLELRGLRTIVTK(QXL520)-NH2) [TSP1-2, FRET peptide substrate, TSP1 amino acids 278-292]	s⁻¹	5.33e-05
(HiLyteFluor-488)-KVTEENKELANELRR-K (QXL520)-NH2 ({HiLyteFluor‑488}-KVTEENKELANELRRK(QXL520)-NH2) [TSP1-3, FRET candidate peptide, TSP1 amino acids 300-314]	s⁻¹	2e-05
(Donor) GMQQSVRTGLPS (K-Quencher) ({donor fluorophore}-GMQQSVRTGLPS-{K(quencher)}; reading uncertain; also: donor fluorophore and quencher not given here, printed as (Donor) GMQQSVRTGLPS (K-Quencher)) [COMP1, FRET candidate peptide, COMP amino acids 73-84]	s⁻¹	1.22e-05

----------
experimental system: rPro-hCD ADAMTS-7 (SEQ ID NO: 1) (Homo sapiens, UniProt Q9UKP4, A119V/A123T/A127T/A171V/A193G/A200T/A28V/A36P/A42G/A66V/A78S/A97T/D77A/DEL186-188/DEL228-233/E133D/E190K/E213K/E83Q/G114S/G115N/G117S/G196D/G27H/H100Y/H124S/H234Q/K153R/L143F/L192S/L20I/P189H/P201S/P29L/P33S/P79S/Q99P/R118N/R122Q/R174Q/R195Q/R215Q/R218H/R35L/R75A/R76Q/R87Q/R92L/S170E/S199R/S202G/S214H/T110I/T125V/V182M/V208G/V74A/W225K/Y209S)
Construct: rat ADAMTS-7 signal peptide + prodomain (rat 1-217), fusion partner (N); 2xStrep tag (C); 6xHis tag (C); made in house; host or cells: Expi293 cells
protocol notes: FRET peptide substrate cleavage by rPro-hCD (SEQ ID NO: 1)
Format: biochemical
recorded conditions: rPro-hCD (SEQ ID NO: 1) and FM2 (SEQ ID NO: 2) constructs
property name: cleavage activity with ADAMTS-7 human catalytic domain constructs (in words)

substance	result
(HiLyteFluor-488)-EENKELANELRRPPL-K (QXL520)-NH2 ({HiLyteFluor‑488}-EENKELANELRRPPLK(QXL520)-NH2) [TSP1-4, FRET candidate peptide, TSP1 amino acids 303-317]	No significant activity
(HiLyteFluor-488)-KVTEENKELANELRR-K (QXL520)-NH2 ({HiLyteFluor‑488}-KVTEENKELANELRRK(QXL520)-NH2) [TSP1-3, FRET candidate peptide, TSP1 amino acids 300-314]	No significant activity
